Experiment: Modulation of P-gp (unknown origin) transfected in human MDA435/LCC6MDR cells assessed as reversible of paclitaxel resistance measured as IC50 for paclitaxel at 1 uM after 5 days by CellTiter 96 Aqueous assay
In this section we review reported IC50 values for a set of compounds.
parameter: IC50 (µM)

>>> df
                         compound_structure  measurement_units   value
0  CCOc1cc(C(=O)O[C@@H]2Cc3c(OC)cc(OC)cc3O[C@@H]2c2cc(OC)c(OC)c(OC)c2)cc(OCC)c1OCC                 µM   0.113
1  COc1cc(OC)c2c(c1)O[C@H](c1cc(OC)c(OC)c(OC)c1)[C@@H](OC(=O)c1ccc(F)c(NC(=O)/C=C/c3ccc(OC)c(OC)c3)c1)C2                 µM  0.0066
2  COc1cc(OC)c2c(c1)O[C@H](c1cc(OC)c(OC)c(OC)c1)[C@H](OC(=O)c1cccc(F)c1)C2                 µM   0.097
3  COc1cc(OC)c2c(c1)O[C@H](c1cc(OC)c(OC)c(OC)c1)[C@H](OC(=O)c1ccc(F)c(N(C)C)c1)C2                 µM   0.036
4  COc1cc(OC)c2c(c1)O[C@H](c1cc(OC)c(OC)c(OC)c1)[C@H](OC(=O)CCc1cc(OC)c(OC)c(OC)c1)C2                 µM   0.018
5  COc1cc(OC)c2c(c1)O[C@H](c1cc(OC)c(OC)c(OC)c1)[C@@H](OC(=O)c1ccc(F)c(NC(=O)c3ccc(OC)c(OC)c3)c1)C2=O                 µM  0.0094
6  COc1cc(OC)c2c(c1)O[C@H](c1cc(OC)c(OC)c(OC)c1)[C@@H](OC(C)=O)C2=O                 µM   0.107

###

Test: Modulation of P-gp (unknown origin) transfected in human MDA435/LCC6MDR cells assessed as reversible of paclitaxel resistance measured as IC50 for paclitaxel at 1 uM after 5 days by CellTiter 96 Aqueous assay
Rule: IC50 below 0.03 µM gives 1, anything at or above gives 0.

In [3]: df
Out[3]:
                          compound_structure  assigned_category
 0  COc1cc(OC)c2c(c1)O[C@H](c1cc(OC)c(OC)c(OC)c1)[C@@H](OC(=O)c1ccc(F)c(NC(=O)/C=C/c3cc(OC)c(OC)c(OC)c3)c1)C2=O                  1
 1  COc1cc(OC)c2c(c1)O[C@H](c1cc(OC)c(OC)c(OC)c1)[C@@H](OC(=O)c1cc(OC)c(OC)c(OC)c1)C2=O                  0
 2  C=CCOc1cc(C(=O)O[C@@H]2Cc3c(OC)cc(OC)cc3O[C@@H]2c2cc(OC)c(OC)c(OC)c2)cc(OCC=C)c1OCC=C                  1
 3  COc1ccc(/C=C/C(=O)O[C@H]2C(=O)c3c(OC)cc(OC)cc3O[C@@H]2c2cc(OC)c(OC)c(OC)c2)cc1                  0
 4  COc1cc(OC)c2c(c1)O[C@H](c1cc(OC)c(OC)c(OC)c1)[C@@H](OC(=O)c1ccc(OC)c(OC)c1)C2=O                  0
 5  COc1cc(OC)c2c(c1)O[C@H](c1cc(OC)c(OC)c(OC)c1)[C@H](OC(=O)/C=C/c1ccc(OC)c(OC)c1)C2                  1
 6  COc1cc(OC)c2c(c1)O[C@H](c1cc(OC)c(OC)c(OC)c1)[C@H](OC(=O)c1ccc(F)c(NC(=O)/C=C/c3cc(OC)c(OC)c(OC)c3)c1)C2                  1
 7  C=CCOc1cc(C(=O)O[C@H]2C(=O)c3c(OC)cc(OC)cc3O[C@@H]2c2cc(OC)c(OC)c(OC)c2)cc(OCC=C)c1OCC=C                  0
 8  COc1cccc(C(=O)O[C@@H]2Cc3c(OC)cc(OC)cc3O[C@@H]2c2cc(OC)c(OC)c(OC)c2)c1                  0
 9  COc1cc(OC)c2c(c1)O[C@H](c1cc(OC)c(OC)c(OC)c1)[C@H](OC(=O)c1ccc(F)c(NC(C)=O)c1)C2                  1
10  COc1cc(OC)c2c(c1)O[C@H](c1cc(OC)c(OC)c(OC)c1)[C@H](OC(=O)c1ccc(OC)c(OC)c1)C2                  1
11  COc1cc(OC)c2c(c1)O[C@H](c1cc(OC)c(OC)c(OC)c1)[C@H](OC(=O)Cc1ccc(OC)c(OC)c1)C2                  0
12  COc1ccc(C(=O)O[C@H]2C(=O)c3c(OC)cc(OC)cc3O[C@@H]2c2cc(OC)c(OC)c(OC)c2)cc1                  0
13  COc1cc(OC)c2c(c1)O[C@H](c1cc(OC)c(OC)c(OC)c1)[C@H](OC(=O)c1ccc(F)c(NC(=O)c3cc(OC)c(OC)c(OC)c3)c1)C2                  1
14  COc1cc(OC)c2c(c1)O[C@H](c1cc(OC)c(OC)c(OC)c1)[C@H](OC(=O)c1ccc(F)c(NC(=O)c3ccc(F)c(NC(=O)c4ccc(OC)c(OC)c4)c3)c1)C2                  1
15  COc1ccc(CC(=O)O[C@@H]2Cc3c(OC)cc(OC)cc3O[C@@H]2c2cc(OC)c(OC)c(OC)c2)cc1                  0
16  COc1cc(OC)c2c(c1)O[C@H](c1cc(OC)c(OC)c(OC)c1)[C@H](OC(=O)c1ccc(F)c(NC(=O)c3ccc(OC)c(OC)c3)c1)C2                  1
17  COc1cc(OC)c2c(c1)O[C@H](c1cc(OC)c(OC)c(OC)c1)[C@@H](OC(=O)c1ccc(F)c(NC(=O)c3cc(OC)c(OC)c(OC)c3)c1)C2=O                  0
18  COc1cc(OC)c2c(c1)O[C@H](c1cc(OC)c(OC)c(OC)c1)[C@H](OC(=O)c1ccc(F)cc1)C2                  0
19  COc1cc(OC)c2c(c1)O[C@H](c1cc(OC)c(OC)c(OC)c1)[C@@H](O)C2                  0

Values compiled from BindingDB's records for doi:10.1021/acs.jmedchem.5b00085.
